meta.source: paper PMC9090415

- Study system: P. falciparum apicoplast DNA polymerase (Pf-apPOL) (Plasmodium falciparum, UniProt Q8ILY1)
- Sequence (Q8ILY1 entry or part of it): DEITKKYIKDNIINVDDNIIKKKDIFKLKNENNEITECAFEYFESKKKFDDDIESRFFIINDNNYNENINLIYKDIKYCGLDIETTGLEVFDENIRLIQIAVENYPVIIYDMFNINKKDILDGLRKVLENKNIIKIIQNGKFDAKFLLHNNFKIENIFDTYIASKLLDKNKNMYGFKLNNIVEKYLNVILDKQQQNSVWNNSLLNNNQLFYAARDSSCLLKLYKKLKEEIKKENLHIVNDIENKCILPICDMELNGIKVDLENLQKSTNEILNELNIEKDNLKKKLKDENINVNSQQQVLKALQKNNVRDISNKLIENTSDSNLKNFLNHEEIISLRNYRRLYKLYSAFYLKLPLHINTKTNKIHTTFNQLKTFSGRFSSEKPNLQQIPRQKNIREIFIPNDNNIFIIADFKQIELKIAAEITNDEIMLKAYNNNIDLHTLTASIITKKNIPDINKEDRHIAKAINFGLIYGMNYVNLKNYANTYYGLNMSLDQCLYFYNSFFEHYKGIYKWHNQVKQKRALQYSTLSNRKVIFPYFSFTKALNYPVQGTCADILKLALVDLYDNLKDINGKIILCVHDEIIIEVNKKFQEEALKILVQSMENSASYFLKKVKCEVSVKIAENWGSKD
- Protocol notes: Fluorescence-based high-throughput DNA polymerase assay (molecular beacon), primary screen and dose-response
- Assay type: biochemical
- Condition: primary screen value of the library well; unit not given; 90 min, 10 µM
// FALSE strictly below 60 in DNA Pol; TRUE otherwise

Solved cases below.
N#Cc1c(C2CCCCC2)nc(Sc2ccc(C(F)(F)F)cc2[N+](=O)[O-])[nH]c1=O; TRUE
O=c1cc(CN2CCCCC2)c2cc3c(cc2o1)OCO3; FALSE
COc1ccc2c(c1)C(c1ccccc1OC)CC(=O)O2 (stereo not shown); FALSE
CCCCc1ccc(NC(=O)CSc2nc(O)c(C#N)c(C3CCCCC3)n2)c(C)c1; TRUE

Evaluate COCCN(CCOC)Cc1c(O)ccc2c1OC(=Cc1cc(Br)ccc1OC)C2=O : DNA Pol at minimum 60? TRUE

Evaluate COc1ccc(-c2c(C(F)(F)F)nn3c(=O)cc(-c4cccc([N+](=O)[O-])c4)[nH]c23)cc1 : DNA Pol at minimum 60? TRUE

Evaluate NC(=O)c1cc[n+](CC2=C(C(=O)[O-])N3C(=O)[C@@H](NC(=O)[C@@H](c4ccccc4)S(=O)(=O)[O-])[C@H]3SC2)cc1.[Na+] : DNA Pol at minimum 60? TRUE
